These data points were gathered from patent US20240293405A1.

assay: Oral dog 4-week toxicity study with toxicokinetics; assay type: in vivo, beagle dogs; conditions: beagle, in vivo, po; dog Day 1, 100 mg/kg/day, Male
measured_metric: Cmax
Give the value; after it, write the unit.

Form: molecule = C=CC(=O)Nc1cc(Nc2nccc(-n3ccc4cccnc43)n2)c(OC)cc1N(C)CCN(C)C ; Cmax = 367 ng/mL

----------
tested on: three primary patient-derived GBM cell lines harboring EGFR amplification and/or mutations; test: Cell viability, three patient-derived GBM cell lines (summary); type: cell-based; conditions: Homo sapiens; neurosphere culture; read-out: IC50 of cell viability, range over three patient cell lines
pIC50: −log10 of the molar value.
measured_metric: pIC50

Given the compound C=CC(=O)Nc1cc(Nc2nccc(-n3ccc4cccnc43)n2)c(OC)cc1N(C)CCN(C)C [Compound 1] and test system three primary patient-derived GBM cell lines harboring EGFR amplification and/or mutations, the measured pIC50 is 5.48 to 6.05

----------
Target: EGFR(L858R,T790M) (Homo sapiens, UniProt P00533, L858R/T790M)
Experiment: Kinase binding constant (Kd)
Description: EGFR amplifications and/or mutations are common in GBM, estimated to occur in over 50% of patients.
measured_metric: pKd
pKd is defined as minus the log10 of a concentration measured in mol/L.

Form: compound = C=CC(=O)Nc1cc(Nc2nccc(-n3ccc4cccnc43)n2)c(OC)cc1N(C)CCN(C)C ; pKd = 9.96

----------
target: ALK, EGFR and FLT3 mutants (Homo sapiens, UniProt P00533); test: Targeted kinase binding constants, mutant kinases (summary); conditions: read-out: mutant kinase binding (Kd) for several EGFR single and double mutants
Sequence (P00533 25-1210 limits assumed, change not shown): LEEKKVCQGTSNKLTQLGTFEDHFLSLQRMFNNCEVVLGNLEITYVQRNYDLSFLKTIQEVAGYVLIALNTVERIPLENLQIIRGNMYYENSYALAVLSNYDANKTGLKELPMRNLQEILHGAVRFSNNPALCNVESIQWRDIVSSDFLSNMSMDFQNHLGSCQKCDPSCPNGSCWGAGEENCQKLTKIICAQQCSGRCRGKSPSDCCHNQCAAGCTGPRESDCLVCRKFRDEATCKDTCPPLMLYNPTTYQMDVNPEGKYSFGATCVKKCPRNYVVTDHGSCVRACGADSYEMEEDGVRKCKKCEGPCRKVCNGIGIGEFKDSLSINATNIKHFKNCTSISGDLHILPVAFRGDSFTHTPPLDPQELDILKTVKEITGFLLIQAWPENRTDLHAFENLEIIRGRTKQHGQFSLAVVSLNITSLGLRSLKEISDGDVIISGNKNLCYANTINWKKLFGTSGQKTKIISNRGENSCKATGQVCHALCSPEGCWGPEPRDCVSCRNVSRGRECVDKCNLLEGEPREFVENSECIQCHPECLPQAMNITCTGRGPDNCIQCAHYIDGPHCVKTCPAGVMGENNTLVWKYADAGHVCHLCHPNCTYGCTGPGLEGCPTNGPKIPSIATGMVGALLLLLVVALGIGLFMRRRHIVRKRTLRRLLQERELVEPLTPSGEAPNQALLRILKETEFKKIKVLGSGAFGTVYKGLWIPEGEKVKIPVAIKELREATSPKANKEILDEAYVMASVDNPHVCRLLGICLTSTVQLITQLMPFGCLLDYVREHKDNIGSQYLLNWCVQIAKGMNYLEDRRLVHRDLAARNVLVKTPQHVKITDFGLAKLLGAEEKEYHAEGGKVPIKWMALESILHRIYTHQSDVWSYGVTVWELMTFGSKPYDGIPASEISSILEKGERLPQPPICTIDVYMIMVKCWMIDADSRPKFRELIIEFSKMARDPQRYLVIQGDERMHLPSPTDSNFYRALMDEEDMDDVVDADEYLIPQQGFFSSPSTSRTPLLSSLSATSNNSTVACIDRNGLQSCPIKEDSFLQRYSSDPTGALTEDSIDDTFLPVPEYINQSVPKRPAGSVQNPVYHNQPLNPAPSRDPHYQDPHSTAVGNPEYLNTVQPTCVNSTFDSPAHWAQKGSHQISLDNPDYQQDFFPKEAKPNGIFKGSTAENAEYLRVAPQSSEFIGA
pKd: −log10 of the molar value.
measured_metric: pKd

Form: compound = C=CC(=O)Nc1cc(Nc2nccc(-n3ccc4cccnc43)n2)c(OC)cc1N(C)CCN(C)C [Compound 1] ; pKd = > 9.00

----------
experiment: Brain and plasma exposure after single oral dose; type: in vivo, Sprague Dawley rats; conditions: Sprague Dawley, rat, brain, po, 50 mg/kg, gefitinib 50 mg/kg PO, 7 hr, mean n=3; read-out: Brain/Plasma (ratios)
measured_metric: Kp at 7 h
Could you keep your reply to the number by itself?

Form: compound = COc1cc2ncnc(Nc3ccc(F)c(Cl)c3)c2cc1OCCCN1CCOCC1 [Gefitinib, reference compound] ; Kp at 7 h = 0.22

----------
assay: Oral dog 4-week toxicity study with toxicokinetics; format: in vivo, beagle dogs; conditions: beagle, in vivo, po; dog Day 1, 30 mg/kg/day, Female; read-out: AUClast
measured_metric: AUC(0-t) (ng·h/mL)
Numbers only; they are read as ng·h/mL.

Form: compound = C=CC(=O)Nc1cc(Nc2nccc(-n3ccc4cccnc43)n2)c(OC)cc1N(C)CCN(C)C ; AUC(0-t) = 1960

----------
target: CYP3A4-T (Homo sapiens, UniProt P08684)
Sequence (P08684 whole entry): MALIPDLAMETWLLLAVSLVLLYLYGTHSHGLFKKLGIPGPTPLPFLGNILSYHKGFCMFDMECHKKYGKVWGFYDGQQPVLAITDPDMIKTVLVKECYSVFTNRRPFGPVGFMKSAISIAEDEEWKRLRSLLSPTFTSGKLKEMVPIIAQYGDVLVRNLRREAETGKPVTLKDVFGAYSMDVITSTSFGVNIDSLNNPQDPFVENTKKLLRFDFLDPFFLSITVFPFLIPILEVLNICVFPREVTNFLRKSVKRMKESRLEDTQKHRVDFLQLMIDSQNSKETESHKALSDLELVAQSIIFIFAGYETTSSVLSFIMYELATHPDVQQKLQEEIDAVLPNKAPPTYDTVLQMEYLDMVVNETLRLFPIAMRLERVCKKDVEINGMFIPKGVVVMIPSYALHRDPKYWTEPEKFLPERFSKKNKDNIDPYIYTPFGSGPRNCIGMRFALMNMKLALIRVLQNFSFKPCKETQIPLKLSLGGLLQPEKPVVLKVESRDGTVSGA
measured_metric: IC50 (µM)
Numbers only; they are read as µM.

Form: compound = C=CC(=O)Nc1cc(Nc2nccc(-n3ccc4cccnc43)n2)c(OC)cc1N(C)CCN(C)C [Compound 1] ; IC50 = 4.89

----------
assay: Oral dog 4-week toxicity study with toxicokinetics; assay type: in vivo, beagle dogs; settings: beagle, in vivo, po; dog Day 1, 30 mg/kg/day, Male; read-out: AUClast
measured_metric: AUC(0-t) (ng·h/mL)
Numbers only; they are read as ng·h/mL.

Form: compound = C=CC(=O)Nc1cc(Nc2nccc(-n3ccc4cccnc43)n2)c(OC)cc1N(C)CCN(C)C ; AUC(0-t) = 3790

----------
assay: Oral dog 4-week toxicity study with toxicokinetics; format: in vivo, beagle dogs; settings: beagle, in vivo, po; dog Day 1, 10 mg/kg/day, Female
measured_metric: Cmax
Give the value; after it, write the unit.

Form: compound = C=CC(=O)Nc1cc(Nc2nccc(-n3ccc4cccnc43)n2)c(OC)cc1N(C)CCN(C)C ; Cmax = 142 ng/mL

----------
molecular target: EGFR(T790M) (Homo sapiens, UniProt P00533, T790M); assay: Kinase binding constant (Kd)
Sequence (P00533 25-1210 T790M): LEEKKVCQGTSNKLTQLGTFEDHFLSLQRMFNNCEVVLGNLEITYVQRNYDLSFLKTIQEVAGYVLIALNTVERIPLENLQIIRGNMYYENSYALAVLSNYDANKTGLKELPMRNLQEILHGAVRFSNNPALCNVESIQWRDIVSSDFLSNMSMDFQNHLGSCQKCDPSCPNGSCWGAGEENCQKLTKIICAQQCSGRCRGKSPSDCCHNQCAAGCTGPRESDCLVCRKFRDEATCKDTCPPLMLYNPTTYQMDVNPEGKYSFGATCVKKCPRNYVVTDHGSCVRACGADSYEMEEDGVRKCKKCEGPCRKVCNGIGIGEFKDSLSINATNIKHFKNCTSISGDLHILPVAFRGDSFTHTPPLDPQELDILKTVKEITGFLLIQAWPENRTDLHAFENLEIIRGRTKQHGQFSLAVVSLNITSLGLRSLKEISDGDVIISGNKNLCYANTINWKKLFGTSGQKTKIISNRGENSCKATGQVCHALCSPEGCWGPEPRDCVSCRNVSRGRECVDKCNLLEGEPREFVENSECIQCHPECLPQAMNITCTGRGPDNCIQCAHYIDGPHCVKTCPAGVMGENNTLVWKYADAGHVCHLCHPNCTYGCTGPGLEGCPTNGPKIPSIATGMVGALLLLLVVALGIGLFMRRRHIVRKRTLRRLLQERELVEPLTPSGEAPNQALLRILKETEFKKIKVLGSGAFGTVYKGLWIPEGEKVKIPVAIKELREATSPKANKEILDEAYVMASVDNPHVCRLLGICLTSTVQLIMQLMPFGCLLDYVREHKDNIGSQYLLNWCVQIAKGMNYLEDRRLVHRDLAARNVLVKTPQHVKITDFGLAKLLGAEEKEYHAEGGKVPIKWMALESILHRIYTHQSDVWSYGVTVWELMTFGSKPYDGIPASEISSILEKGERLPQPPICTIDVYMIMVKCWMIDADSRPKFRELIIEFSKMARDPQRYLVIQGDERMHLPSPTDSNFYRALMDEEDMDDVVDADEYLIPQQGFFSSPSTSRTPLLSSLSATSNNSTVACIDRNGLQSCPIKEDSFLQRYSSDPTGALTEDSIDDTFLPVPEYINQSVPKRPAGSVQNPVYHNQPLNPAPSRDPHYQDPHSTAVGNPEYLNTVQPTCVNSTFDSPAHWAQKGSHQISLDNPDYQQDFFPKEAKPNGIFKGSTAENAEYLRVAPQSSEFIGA
measured_metric: pKd
pKd is defined as minus the log10 of a concentration measured in mol/L.

Form: compound = C=CC(=O)Nc1cc(Nc2nccc(-n3ccc4cccnc43)n2)c(OC)cc1N(C)CCN(C)C [Compound 1] ; pKd = 9.82

----------
assay: Oral dog 4-week toxicity study with toxicokinetics; type: in vivo, beagle dogs; conditions: beagle, in vivo, po; dog Day 1, 100 mg/kg/day, Female
measured_metric: Cmax (ng/mL)
Numbers only; they are read as ng/mL.

Form: compound = C=CC(=O)Nc1cc(Nc2nccc(-n3ccc4cccnc43)n2)c(OC)cc1N(C)CCN(C)C ; Cmax = 293

----------
Property: concentration at 5 h; scope: individual compounds
Experiment: Brain and plasma exposure after 5 hour intravenous infusion
Format: in vivo, Sprague Dawley rats
Conditions: male, Sprague Dawley, rat, plasma, intravenous, 3 mg/kg, 3 mg/kg IV infusion over 5 h, 5 h, individual animal; Compound 2 as metabolite in Compound 1-dosed rats; read-out: Plasma Concentration
Protocol: A single IV infustion for 5 hours was administered to each animal, which were then twice observed clinically (30 minutes to 1 hour post-posing and at the end of the study (TTerminal). Blood samples were collected at 5 time points from each animal over the 5 hour infusion period (5 minutes, 1 hour, 2, hours, 3 hours and TTerminal) and processed to plasma. Brains were collected at Tterminal (blotted, weighed, and snap frozen) and brain exposure was compared. […]
Numbers only; they are read as ng/mL.

Worked cases, answers included:
COc1cc2ncnc(Nc3ccc(F)c(Cl)c3)c2cc1OCCCN1CCOCC1 [Gefitinib, reference compound]; 286
C=CC(=O)Nc1cc(Nc2nccc(-n3ccc4cccnc43)n2)c(OC)cc1N(C)CCN(C)C [Compound 1]; 119

Now look at this entry.
Form: compound = C=CC(=O)Nc1cc(Nc2nccc(-n3ccc4cccnc43)n2)c(OC)cc1N(C)CCNC [Compound 2] ; concentration at 5 h = 18.2

----------
assay: Oral dog 4-week toxicity study with toxicokinetics; format: in vivo, beagle dogs; conditions: male, beagle, in vivo; dog Day 28 mean, 30 mg/kg Compound 1 PO, M; Compound 2 as metabolite; read-out: AUC0-24
measured_metric: AUC(0-t) (ng·h/mL)
Numbers only; they are read as ng·h/mL.

C=CC(=O)Nc1cc(Nc2nccc(-n3ccc4cccnc43)n2)c(OC)cc1N(C)CCNC; 2980

Now look at this entry.
Form: compound = C=CC(=O)Nc1cc(Nc2nccc(-n3ccc4cccnc43)n2)c(OC)cc1N(C)CCN(C)C ; AUC(0-t) = 7180

----------
target: EGFR (Homo sapiens, UniProt P00533)
Sequence (P00533 25-1210): as the sequence (P00533 25-1210 limits assumed, change not shown) above
measured_metric: Kd (nM)
Numbers only; they are read as nM.

Form: compound = C=CC(=O)Nc1cc(Nc2nccc(-n3ccc4cccnc43)n2)c(OC)cc1N(C)CCN(C)C [Compound 1] ; Kd = 4.9

----------
Property: AUC(0-t); scope: individual molecules
Assay: Oral dog 4-week toxicity study with toxicokinetics
Format: in vivo, beagle dogs
Conditions: male, beagle, in vivo; dog Day 28 mean, 10 mg/kg Compound 1 PO, M; Compound 2 as metabolite; read-out: AUC0-24
Description: Compound 1 (0, 10, 30, and 100 mg/kg/day) was given orally, once daily by gavage, to male and female beagle dogs (4/sex) for up to 28 days. […] The cause of death in this high-dose male was attributed to myocardial degeneration. This lesion was not observed in any other dog on study. […]
Numbers only; they are read as ng·h/mL.

C=CC(=O)Nc1cc(Nc2nccc(-n3ccc4cccnc43)n2)c(OC)cc1N(C)CCN(C)C; 3880

Form: molecule = C=CC(=O)Nc1cc(Nc2nccc(-n3ccc4cccnc43)n2)c(OC)cc1N(C)CCNC ; AUC(0-t) = 1420

----------
test: Brain and plasma exposure after 5 hour intravenous infusion; type: in vivo, Sprague Dawley rats; conditions: Sprague Dawley, rat, brain, other: continuous intravenous infusion and oral dosing, rat, estimated steady state by continuous intravenous infusion and oral dosing; read-out: whole brain exposure relative to plasma
measured_metric: Kp
Could you keep your reply to the number by itself?

Form: compound = C=CC(=O)Nc1cc(Nc2nccc(-n3ccc4cccnc43)n2)c(OC)cc1N(C)CCN(C)C [Compound 1] ; Kp = 20

----------
target: EGFR(L861Q) (Homo sapiens, UniProt P00533, L861Q); assay: Kinase binding constant (Kd)
Sequence (P00533 25-1210 L861Q): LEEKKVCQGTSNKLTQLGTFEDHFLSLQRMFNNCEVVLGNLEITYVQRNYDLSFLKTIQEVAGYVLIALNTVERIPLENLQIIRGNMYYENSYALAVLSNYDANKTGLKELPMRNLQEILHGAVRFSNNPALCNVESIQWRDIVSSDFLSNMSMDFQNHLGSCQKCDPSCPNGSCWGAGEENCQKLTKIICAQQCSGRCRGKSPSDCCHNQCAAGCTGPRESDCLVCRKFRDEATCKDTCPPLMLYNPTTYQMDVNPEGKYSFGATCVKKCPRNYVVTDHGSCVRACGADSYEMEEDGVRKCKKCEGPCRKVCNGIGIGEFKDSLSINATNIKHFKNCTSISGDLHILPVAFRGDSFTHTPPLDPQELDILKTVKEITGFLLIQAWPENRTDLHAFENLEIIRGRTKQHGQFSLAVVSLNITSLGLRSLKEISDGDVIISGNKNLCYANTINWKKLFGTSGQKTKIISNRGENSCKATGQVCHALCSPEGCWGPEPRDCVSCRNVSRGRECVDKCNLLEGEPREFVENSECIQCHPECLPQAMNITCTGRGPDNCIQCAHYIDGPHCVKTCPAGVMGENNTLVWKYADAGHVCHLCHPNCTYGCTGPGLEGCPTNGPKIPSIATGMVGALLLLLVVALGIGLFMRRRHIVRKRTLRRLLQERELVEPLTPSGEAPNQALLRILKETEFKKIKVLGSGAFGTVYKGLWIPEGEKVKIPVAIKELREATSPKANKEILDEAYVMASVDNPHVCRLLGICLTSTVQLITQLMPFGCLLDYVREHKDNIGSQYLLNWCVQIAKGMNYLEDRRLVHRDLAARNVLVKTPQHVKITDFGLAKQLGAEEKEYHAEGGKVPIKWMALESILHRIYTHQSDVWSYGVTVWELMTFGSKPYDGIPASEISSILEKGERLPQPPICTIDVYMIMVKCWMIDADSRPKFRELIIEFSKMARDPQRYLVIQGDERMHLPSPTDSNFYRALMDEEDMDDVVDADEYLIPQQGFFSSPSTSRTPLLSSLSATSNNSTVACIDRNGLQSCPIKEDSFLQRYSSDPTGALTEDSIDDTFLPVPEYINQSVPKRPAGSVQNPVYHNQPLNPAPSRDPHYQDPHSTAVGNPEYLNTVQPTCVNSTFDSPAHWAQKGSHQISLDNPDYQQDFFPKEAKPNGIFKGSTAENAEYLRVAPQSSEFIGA
measured_metric: Kd (nM)
Numbers only; they are read as nM.

Form: molecule = C=CC(=O)Nc1cc(Nc2nccc(-n3ccc4cccnc43)n2)c(OC)cc1N(C)CCN(C)C [Compound 1] ; Kd = 3.9

----------
experiment: Comparative plasma protein binding; type: in vitro ADME; settings: human, monkey, dog, rat, mouse, across species, independent of concentration, read-out: plasma protein bound
measured_metric: fraction unbound

Form: compound = C=CC(=O)Nc1cc(Nc2nccc(-n3ccc4cccnc43)n2)c(OC)cc1N(C)CCN(C)C ; fraction unbound = 0.013 to 0.044

----------
experiment: Plasma, brain and lung levels after 7 days oral dosing; format: in vivo, Sprague Dawley Rats; details: Sprague Dawley, rat, brain; 10 mg/kg po qd 7 days, 24 hrs after last dosing, Female; read-out: Brain
measured_metric: concentration at 24 h
Give the value; after it, write the unit.

Form: compound = C=CC(=O)Nc1cc(Nc2nccc(-n3ccc4cccnc43)n2)c(OC)cc1N(C)CCN(C)C ; concentration at 24 h = 39.8 ng/g
